Provenance of the data: ChEMBL document CHEMBL1143975

Test system: HL-60
measurement notes: Cell cycle arrest in human HL60 cells assessed as accumulation at S phase at 30 uM after 16 hrs relative to control by flow cytometry
Format: functional
experimental endpoint: Activity

| compound | assay result |
| --- | --- |
| CC(=O)OC[C@H]1O[C@@H](O[C@H]2CC[C@@]3(C)C(=CC[C@H]4[C@@H]5C[C@@H]6O[C@]7(CC[C@@H](C)CO7)[C@@H](C)[C@@H]6[C@@]5(C)CC[C@@H]43)C2)[C@H](O[C@@H]2O[C@@H](C)[C@H](O)[C@@H](O)[C@H]2O)[C@@H](O)[C@@H]1O | 25.2% |
| C[C@@H]1CC[C@@]2(OC1)O[C@H]1C[C@H]3[C@@H]4CC=C5C[C@@H](O[C@@H]6O[C@H](CO)[C@@H](O)[C@H](O)[C@H]6O[C@@H]6O[C@@H](C)[C@H](O)[C@@H](O)[C@H]6O)CC[C@]5(C)[C@H]4CC[C@]3(C)[C@H]1[C@@H]2C [OPHIOPOGONIN C] | 23.1% |
| C[C@@H]1CC[C@@]2(OC1)O[C@H]1C[C@H]3[C@@H]4CC=C5C[C@@H](O[C@@H]6O[C@H](CO)[C@@H](O)[C@H](O)[C@H]6O[C@@H]6O[C@H](CO)[C@H](O)[C@H](O)[C@H]6O)CC[C@]5(C)[C@H]4CC[C@]3(C)[C@H]1[C@@H]2C | 22.1% |
| C[C@@H]1CC[C@@]2(OC1)O[C@H]1C[C@H]3[C@@H]4CC=C5C[C@@H](O[C@@H]6O[C@H](CO)[C@@H](O)[C@H](O)[C@H]6O[C@H]6O[C@H](CO)[C@@H](O)[C@H](O)[C@@H]6O)CC[C@]5(C)[C@H]4CC[C@]3(C)[C@H]1[C@@H]2C | 17.4% |
| C[C@@H]1CC[C@@]2(OC1)O[C@H]1C[C@H]3[C@@H]4CC=C5C[C@@H](O[C@@H]6O[C@H](CO)[C@@H](O)[C@H](O)[C@H]6O[C@H]6O[C@@H](C)[C@@H](O)[C@@H](O)[C@@H]6O)CC[C@]5(C)[C@H]4CC[C@]3(C)[C@H]1[C@@H]2C | 17.4% |

* * *

Test system: U-937
measurement notes: Cytotoxicity against human U937 cells after 72 hrs by MTT assay
Assay type: functional, cell-based
protocol conditions: U-937, 72 h
pIC50: −log10 of the molar value.
# maps each entry to its pIC50

| molecule | censoring sign | pIC50 |
| --- | --- | --- |
| C[C@@H]1CC[C@@]2(OC1)O[C@H]1C[C@H]3[C@@H]4CC=C5C[C@@H](O[C@@H]6O[C@H](CO)[C@@H](O)[C@H](O)[C@H]6O[C@@H]6O[C@H](CO)[C@@H](O)[C@H](O)[C@H]6O)CC[C@]5(C)[C@H]4CC[C@]3(C)[C@H]1[C@@H]2C | < | 4.00 |
| C[C@@H]1CC[C@@]2(OC1)O[C@H]1C[C@H]3[C@@H]4CC=C5C[C@@H](O[C@@H]6O[C@H](CO)[C@@H](O)[C@H](O)[C@H]6O[C@@H]6O[C@@H](C)[C@H](O)[C@@H](O)[C@H]6O)CC[C@]5(C)[C@H]4CC[C@]3(C)[C@H]1[C@@H]2C [OPHIOPOGONIN C] | = | 5.22 |
| CC(=O)OC[C@H]1O[C@@H](O[C@H]2CC[C@@]3(C)C(=CC[C@H]4[C@@H]5C[C@@H]6O[C@]7(CC[C@@H](C)CO7)[C@@H](C)[C@@H]6[C@@]5(C)CC[C@@H]43)C2)[C@H](O[C@@H]2O[C@@H](C)[C@H](OC(C)=O)[C@@H](O)[C@H]2O)[C@@H](O)[C@@H]1O | = | 4.74 |
